Experiment: modulators of S6 phosphorylation in cells, primary screen, cell-based, A549, cytoblot, luminescence, serum-stimulated (AID 1158);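 note: serum-stimulated A549 lung adenocarcinoma cells; signal is phosphorylated S6 detected by cytoblot immunostaining with HRP secondary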
Conditions: A549 phospho-S6 cytoblot, 5 h, higher = more signal
# z-score values compiled below
Output: the number by itself.

Consider the worked cases shown below.
CCOC(=O)C[C@H]1[C@H](OC(=O)c2ccc(C(=O)c3ccccc3)cc2)[C@@H](NC(=O)c2ccccc2)c2cc(OCCCO)ccc2N1C(=O)Cc1ccc(OC)cc1
-0.0114
O=C(NC1CC1)[C@@H]1c2ccccc2C(=O)N(Cc2ccccc2Cl)[C@H]1c1ccc(CO)cc1
2.67
O=C1NC(=O)C2C1C=CC(C(O)c1cccs1)N2Nc1ccc(Cl)cc1Cl (centres undefined)
-0.27
C[N+](C)(C)CCCC[C@@H]1NC(=O)[C@H]2C[C@@H](C(=O)NCCCCCCNC(=O)CS)[C@@H](c3cccc(OCCO)c3)N2C1=O
0.0934
O=C1O[C@@H](c2ccccc2)[C@@H](c2ccccc2)N2[C@@H](c3ccccc3OCCO)[C@]3(C(=O)Nc4ccc(C#CC5=CCCCC5)cc43)[C@@H](C(=O)N3CCCCCCC3)[C@H]12
-0.359
COc1cc2c(cc1O)C(c1cccs1)N(C)CC2 (centres undefined)
-0.331
COCC(=C=CC[C@@H](O)c1cccc(OCCO)c1)C[C@@H](O)c1ccccn1
-0.613
COc1cc2c(cc1OC)CN(C(=O)[C@H]1[C@@H]3C(=O)O[C@@H](c4ccccc4)[C@@H](c4ccccc4)N3[C@@H](c3ccc(O)cc3)[C@]13C(=O)Nc1ccc(C#CCCO)cc13)CC2
0.503
NCCCCCCNC(=O)[C@@H]1C[C@@H]2C(=O)NCC(=O)N2[C@@H]1c1ccc(O)cc1
0.257
CCOC(=O)C[C@H]1[C@H](OC(=O)c2ccc(C(=O)c3ccccc3)cc2)[C@@H](NC(=O)c2ccccc2)c2cc(OCCCO)ccc2N1C(=O)c1ccc2ccccc2n1
-0.0519

Using the record for "CN(C)C(=O)[C@@]1(CCS(=O)(=O)c2ccccc2)COC(c2ccc(OCCCO)cc2)=N1" , report its z-score. 0.313

Queued: "C=CCOC(=O)[C@H]1[C@@H]2C(=O)O[C@@H](c3ccccc3)[C@@H](c3ccccc3)N2[C@@H](c2ccc(OCCOC(=O)[C@H]3C[C@H]4C(=O)N[C@@H](CCCCN(C)C)C(=O)N4[C@H]3c3ccc(O)cc3)cc2)[C@]12C(=O)Nc1ccc(I)cc12" -0.236

Try "C#C[C@H](O[Si](C#Cc1ccc(Oc2ccccc2)cc1)(C(C)C)C(C)C)c1ccccc1" next. -0.305

Subsequent entry: "COC(=O)[C@@]1(Cc2ccc(OC)cc2)[C@H]2c3cc(C(=O)N4CCCC4)n(CCN4CNCC4=O)c3C[C@H]2CN1C(=O)c1ccccc1" 0.287

* * *

Test: PSAC antagonists in infected red cells, primary screen, cell-based, P. falciparum Indochina, OD700, 2 h (AID 1155);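 note: lysis reports solute entry through the parasite surface anion channel PSAC; channel blockers reduce lysis of infected cells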
Settings: P. falciparum Indochina infected erythrocytes, osmotic lysis OD700; higher = more signal, called active from +8 up or from −8 down
Could you label it criterion met if measured z-score is 0.9 or higher, and criterion not met otherwise?

Examples with answers:
COCCOC(=O)N1C(=O)[C@@]2(c3cc(C#CCNC(N)=O)ccc31)[C@H](C(=O)N1CCN(c3ncccn3)CC1)[C@H]1C(=O)O[C@H](c3ccccc3)[C@H](c3ccccc3)N1[C@@H]2c1ccc(OCCO)cc1
criterion met
COC(=O)[C@H](Cc1ccccc1)N[C@@H](/C=C/C1CC1)[C@H](O)Cc1ccccc1
criterion not met
C=CCNC(=O)[C@@H]1[C@H]2C(=O)O[C@H](c3ccccc3)[C@H](c3ccccc3)N2[C@H](c2ccc(O)cc2)[C@@]12C(=O)Nc1ccc(C#CCNC(N)=O)cc12
criterion not met
COc1cc(C(O)C2C=CC3C(=O)NC(=O)C3N2Nc2ccccn2)cc(OC)c1OC (stereo not drawn)
criterion not met

Confirm if z-score reported for the compound "COc1cc(COC(C)=O)ccc1OC(C)=O" is 0.9 or above. criterion not met

Could you do the same for "COCCOC(=O)N1C(=O)[C@@]2(c3ccccc31)[C@H](c1ccccc1OCCO)N1[C@H](c3ccccc3)[C@H](c3ccccc3)OC(=O)[C@H]1[C@@H]2C(=O)N1CCN(c2ncccn2)CC1" , please? criterion met

Origin of values: PubChem BioAssay
